Assay: self-splicing fitness, log relative to wild type (ln ratio); higher = more splicing; Tetrahymena group I intron in knt gene, E. coli kanamycin selection, DiMSum; sequences stand for … in CUCUCU…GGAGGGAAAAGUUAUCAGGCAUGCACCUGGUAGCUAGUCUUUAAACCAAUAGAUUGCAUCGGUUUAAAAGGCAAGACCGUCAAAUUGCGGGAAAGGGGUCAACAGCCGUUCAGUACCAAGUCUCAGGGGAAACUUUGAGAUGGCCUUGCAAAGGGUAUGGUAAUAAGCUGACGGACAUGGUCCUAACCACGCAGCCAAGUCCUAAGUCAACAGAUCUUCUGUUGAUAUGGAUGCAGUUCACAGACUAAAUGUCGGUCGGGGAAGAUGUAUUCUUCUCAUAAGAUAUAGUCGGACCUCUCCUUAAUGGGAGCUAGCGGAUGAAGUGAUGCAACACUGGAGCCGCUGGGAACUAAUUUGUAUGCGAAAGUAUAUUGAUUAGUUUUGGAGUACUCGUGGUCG;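 note: selection with 25 µg/mL kanamycin versus none on LB agar overnight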
Settings: 30 °C
Response key: satisfied means self-splicing fitness (ln) >= -3; not satisfied means self-splicing fitness (ln) < -3.

Q: Say whether `UAUGAGCAAUAUUACGAUAA` shows self-splicing fitness (ln) of -3 or more.
Result: not satisfied

Q: Item `ACUCAGCAAUAUUACGGGGC` with self-splicing fitness (ln) of -3 or above?
Result: not satisfied

Q: Please tell me: is the sequence `AUACAGCAAUAUUACGUGGU` at or over -3 in terms of self-splicing fitness (ln)?
Result: satisfied

Q: Test whether the sequence `CGCUAGCAAUAUUACGUUAU` records self-splicing fitness (ln) of -3 or higher.
Result: not satisfied

Q: Textbook exercise: given the entry `GGGUAGCAAUAUUACGGUGC` , state whether its self-splicing fitness (ln) is greater than or equal to -3.
Result: satisfied

Q: Say whether `GUUGAGCAAUAUUACGCUAC` shows self-splicing fitness (ln) of -3 or more.
Result: satisfied

Q: Confirm if self-splicing fitness (ln) reported for the sequence `AGGCAGCAAUAUUACGUCGC` is -3 or above.
Result: satisfied

Q: Test whether the sequence `GACUAGCAAUAUUACGUGGA` records self-splicing fitness (ln) of -3 or higher.
Result: satisfied

Q: Item `ACGGAGCAAUAUUACGGAGG` with self-splicing fitness (ln) of -3 or above?
Result: not satisfied

Q: Has `GGGCAGCAAUAUUACGUGAU` a recorded self-splicing fitness (ln) greater than or equal to -3?
Result: satisfied

Q: Could you verify whether the entry `CUGCAGCAAUAUUACGCGUA` shows self-splicing fitness (ln) of no less than -3?
Result: satisfied

Q: Kindly determine if self-splicing fitness (ln) recorded for `CCCGAGCAAUAUUACGGGAG` is above or exactly -3.
Result: not satisfied

Q: Exam item: decide whether the reported self-splicing fitness (ln) for `CAACAGCAAUAUUACGCCUC` is at least -3.
Result: not satisfied

Q: Say whether `CAUCAGCAAUAUUACGGUCC` shows self-splicing fitness (ln) of -3 or more.
Result: satisfied

Q: Could you verify whether the entry `CCUUAGCAAUAUUACGGUGC` shows self-splicing fitness (ln) of no less than -3?
Result: not satisfied

Q: Decide: self-splicing fitness (ln) of `GUACAGCAAUAUUACGUAAC` >= -3?
Result: satisfied

Q: Decide: self-splicing fitness (ln) of `GGGUAGCAAUAUUACGCUCA` >= -3?
Result: satisfied

Q: Does self-splicing fitness (ln) meet or surpass -3 for `CCUGAGCAAUAUUACGACCG` ?
Result: not satisfied

Q: Given `UUACAGCAAUAUUACGGGGA` , state whether its self-splicing fitness (ln) is at least -3.
Result: satisfied

Q: Does self-splicing fitness (ln) meet or surpass -3 for `GUUUAGCAAUAUUACGCCGU` ?
Result: satisfied

Q: Does the reported self-splicing fitness (ln) for `AUUCAGCAAUAUUACGAUAG` fall at or above the -3 mark?
Result: not satisfied

Q: Assess whether reported self-splicing fitness (ln) for `UCUAAGCAAUAUUACGAGAG` sits at -3 or higher.
Result: not satisfied
